target: FKBP12 (Homo sapiens, UniProt P62942); assay: SPR binding of compound (analyte) to immobilized FKBP12; details: KD, Example 10, 25° C., 1:1 interaction model
Sequence (P62942 whole entry, species assumed): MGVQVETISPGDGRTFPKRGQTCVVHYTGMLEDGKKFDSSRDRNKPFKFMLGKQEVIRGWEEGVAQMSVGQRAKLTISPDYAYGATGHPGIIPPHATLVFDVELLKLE
reported property: pKd
FYI, pKd means -log10 of a concentration in mol per litre.

[in] May I ask what pKd has been recorded for CC[C@H](Cc1ccccc1)[C@@H]1CCCCCC[C@@H](C)[C@H](O)[C@@H](C)[C@@H]2CC[C@@H](C)C(=O)C(O)(O2)C(=O)N2CCCC[C@H]2C(=O)O1 ?
[out] 7.81

* * *

We begin with a simple list: items and their reported % inhibition of CsA binding to Cyclophilin A.
biological target: Cyclophilin A (Homo sapiens); construct: made in house; assay: AlphaLISA inhibition of binding of biotinylated Cyclosporin A to FLAG tagged Cyclophilin A; conditions: test concentration not given
Sequence (P62937 whole entry, species assumed): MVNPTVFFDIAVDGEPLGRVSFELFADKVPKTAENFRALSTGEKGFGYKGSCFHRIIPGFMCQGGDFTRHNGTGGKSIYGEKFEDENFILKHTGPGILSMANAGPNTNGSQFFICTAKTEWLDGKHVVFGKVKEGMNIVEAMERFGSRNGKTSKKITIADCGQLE
Where a SMILES comes first, the peptide text is derived from it. [ ]: non-standard residue; d: D form. MeBmt = C/C=C/C[C@@H](C)[C@@H](O)[C@H](NC)C(=O)O; NMeF = CN[C@@H](Cc1ccccc1)C(=O)O; NMeL = CN[C@@H](CC(C)C)C(=O)O; NMeV = CN[C@H](C(=O)O)C(C)C; NMeA = CN[C@@H](C)C(=O)O; Abu = CC[C@H](N)C(=O)O; Sar = CNCC(=O)O
I only need the number, in %, no unit after it.

Use the examples below as a reference point.
C/C=C/C[C@@H](C)[C@@H](O)[C@H]1C(=O)N[C@@H](CC)C(=O)N(C)CC(=O)N(C)[C@@H](Cc2ccccc2)C(=O)N[C@@H](C(C)C)C(=O)N(C)[C@@H](C)C(=O)N[C@@H](C)C(=O)N[C@H](C)C(=O)N(C)[C@@H](CC(C)C)C(=O)N(C)[C@@H](CC(C)C)C(=O)N(C)[C@@H](C(C)C)C(=O)N1C [Compound C4] (cyclo([MeBmt][Abu][Sar][NMeF]V[NMeA]A[dA][NMeL][NMeL][NMeV])) = 95.88
C/C=C/C[C@@H](C)[C@@H](O)[C@H]1C(=O)N[C@@H](CC)C(=O)N(C)CC(=O)N(C)[C@@H](C)C(=O)N[C@@H](C(C)C)C(=O)N(C)[C@@H](CC(C)C)C(=O)N[C@@H](CC)C(=O)N[C@H](C)C(=O)N(C)[C@@H](CC(C)C)C(=O)N(C)[C@@H](CC(C)C)C(=O)N(C)[C@@H](C(C)C)C(=O)N1C [Compound C94] (cyclo([Abu][Sar][NMeA]V[NMeL][Abu][dA][NMeL][NMeL][NMeV][MeBmt])) = 96.29

[in] May I ask what % inhibition of CsA binding to Cyclophilin A has been recorded for C/C=C/C[C@@H](C)[C@@H](O)[C@H]1C(=O)N[C@@H](CC)C(=O)N(C)CC(=O)N(C)CC(=O)N[C@@H](CC(C)C)C(=O)N(C)[C@@H](C)C(=O)N[C@@H](C)C(=O)N[C@H](C)C(=O)N(C)[C@@H](CC(C)C)C(=O)N(C)[C@@H](CC(C)C)C(=O)N(C)[C@@H](C(C)C)C(=O)N1C [Compound C13] (cyclo([MeBmt][Abu][Sar][Sar]L[NMeA]A[dA][NMeL][NMeL][NMeV])) ?
[out] 97.30
